System: KB-3-1
PROTOCOL_TEXT: Cytotoxic Profiling of Annotated Libraries Using Quantitative High-Throughput Screening (AID 1296008); also: % is scaled to controls: 0 for no effect and ±100 for the full control effect; nearly all actives have a fitted effect of over 60% in size
DETAILS: Five cell lines viability, CellTiter-Glo ATP luminescence, 48-72 h; active compounds read low
Results filed as inconclusive are left out. Calls of active or inactive are those of the source. Calls follow the shape of the dose curve; as a rule, active = well fitted inhibition curve with a large enough effect; inconclusive = small, poorly fitted or top-dose-only effect; inactive = flat fitted curve, though single readings scatter.
ATTRIBUTE_MEASURED: max response

So, `CCOC(=O)[C@H](CCc1ccccc1)N[C@H]1CCCN2CCC[C@@H](C(=O)O)N2C1=O` ? Its max response was 1.33% (inactive)

Entry under test: CCO[C@H]1CN(C2CCC(O)(c3ccc4c(c3)OCO4)CC2)C[C@@H]1NC(=O)CNC(=O)c1cccc(C(F)(F)F)c1 (some centres undefined) . Its max response was 7% (inactive)

Give measured max response for every item shown.
1. C/C=C/C1=CC2=C(CO1)C(=O)C(C)(OC(=O)c1c(C)cc(O)cc1OC)C(O)C2 (centres undefined)
2. CCC(C)C(=O)OC1C(C)C2(O)C(C=C(CO)CC3(O)C(=O)C(C)=CC32)C2C(C)(C)C12OC(=O)C(C)C (centres undefined)

A:
1: 2.17% (inactive); 2: 7.48% (inactive)

====

System: Nanoluciferase (engineered Oplophorus gracilirostris luciferase)
PROTOCOL_TEXT: Primary Nanoluciferase (NLuc) qHTS assay for identification of artifact compounds. (AID 1845222);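 also: NLuc secreted into diluted conditioned medium of S16 cells; 0% = DMSO and -100% = no enzyme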
DETAILS: NLuc-conditioned medium, Nano-Glo luminescence, 5 min; series mostly up to 54.1 µM
The source made the active and inactive calls. Calls come from the whole dose curve; as a rule, active = well fitted inhibition curve with a large enough effect; inconclusive = small, poorly fitted or top-dose-only effect; inactive = flat fitted curve, though single readings scatter.
ATTRIBUTE_MEASURED: activity, negative = inhibition

The compound listed as `O=C(Nc1nnc(-c2ccc3c(c2)OCCO3)o1)C1CCCCC1` has a reported activity, negative = inhibition of inactive

Just so you know, measured activity, negative = inhibition for CC(=O)O[C@@]12CO[C@@H]1C[C@H](O)[C@@]1(C)C(=O)[C@H](O)C3=C(C)[C@@H](OC(=O)[C@H](O)[C@@H](NC(=O)OC(C)(C)C)c4ccccc4)C[C@@](O)([C@@H](OC(=O)c4ccccc4)C12)C3(C)C (some centres not stated) came out at inactive

Lab book: activity, negative = inhibition of `NS(=O)(=O)Nc1ncnc(OCCOc2ncc(Br)cn2)c1-c1ccc(Br)cc1` noted as inactive

Measured activity, negative = inhibition, `COc1ccccc1C(=O)Nc1cc2c(cc1N1CCCC1)n(C)c(=O)n2C` : inactive

Lab book: activity, negative = inhibition of COC(=O)c1cc(Br)cnc1N1CCC(NC2CCCCC2)C(O)C1 (configuration not stated) noted as inactive

For every item below, please supply its activity, negative = inhibition.
1. CO[C@@H]1CC(OC2CCC3(C)C(CCC45CCC(C6=CC(=O)OC6)C(C)(CCC43)C5=O)C2)O[C@H](C)[C@@H]1O[C@@H]1O[C@H](CO[C@@H]2O[C@H](CO)[C@@H](O)[C@H](O)[C@H]2O)[C@@H](O)[C@H](O)[C@H]1O (some centres not stated)
2. Cc1ccc(NC(=O)N2CCN(c3nc(N)nc4sc(-c5cccnc5)nc34)CC2)cc1

A:
["-1.95% [at 11.6 µM] (inactive)", "inactive"]

====

Tested on: Nanoluciferase (engineered Oplophorus gracilirostris luciferase)
PROTOCOL_TEXT: Primary Nanoluciferase (NLuc) qHTS assay for identification of artifact compounds. (AID 1845222);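 also: NLuc secreted into diluted conditioned medium of S16 cells; 0% = DMSO and -100% = no enzyme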
DETAILS: NLuc-conditioned medium, Nano-Glo luminescence, 5 min; series mostly up to 54.1 µM
Calls of active or inactive are those of the source. The call rests on the fitted dose curve; in most records, active means well fitted inhibition curve with a large enough effect; inconclusive means small, poorly fitted or top-dose-only effect; inactive means flat fitted curve, though single readings scatter.
ATTRIBUTE_MEASURED: activity, negative = inhibition

The compound listed as CCC(C)CNCC(=O)N1CCc2sccc2C1COc1cccc(C)c1 (stereo unspecified) shows activity, negative = inhibition equal to inactive

Data point: `COCCN(C(=O)c1cc(OC)c(OC)c(OC)c1)c1nc(-c2ccccc2)cs1` ; activity, negative = inhibition = inactive

GET /value?item= `CC(=O)OC[C@]12[C@H](OC(C)=O)C(=O)[C@@H]3[C@@H](O)[C@@]14O[C@@]3(C)COC(=O)c1cccnc1[C@@H](C)[C@H](C)C(=O)O[C@@H]([C@H](O)[C@@H]2OC(C)=O)[C@]4(C)O` &field=activity, negative = inhibition returns inactive

According to the records, this compound C=C1CO[C@@]2(O[C@H]3CC4C5CC=C6C[C@@H](O)C[C@@H](O[C@@H]7OC[C@H](O)[C@H](O[C@@H]8OC[C@@H](O)[C@H](O)[C@H]8O)[C@H]7O[C@@H]7O[C@@H](C)[C@H](OC(C)=O)[C@@H](OC(C)=O)[C@H]7OC(C)=O)[C@]6(C)C5CC[C@]4(C)[C@@H]3[C@@H]2C)[C@@H](O)[C@H]1OC1OC(C)C(O)C(O)C1O (stereo partly specified) displays activity, negative = inhibition of 1.51% [at 11.6 µM] (inactive)

Consider `CC(C)(C)c1ccc(C(=O)Nc2cn3cc(-n4ccnc4)ccc3n2)cc1` . Its measured activity, negative = inhibition is inactive

Others:
For reference, reported activity, negative = inhibition for `Cc1cc(-c2nc(-c3ccc(OC(F)(F)F)cc3)no2)nn1Cc1ccnc(N2CCN(C3CC3)CC2)c1` stands at inactive
